- tested-system: TNF-alpha (Homo sapiens, UniProt P01375 P01375:77-233)
- Sequence (P01375 77-233, one chain of several): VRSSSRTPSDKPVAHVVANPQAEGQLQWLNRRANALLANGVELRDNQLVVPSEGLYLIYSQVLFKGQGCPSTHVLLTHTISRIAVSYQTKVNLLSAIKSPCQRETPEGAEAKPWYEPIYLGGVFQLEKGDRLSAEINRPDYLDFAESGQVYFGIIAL
- run-description: filter; class I
- measurement-setup: tags: Genzyme or R&D Systems; chain copies: 3 inferred
observed-property: pKd
Scale explanation: pKd corresponds to minus log10 of a concentration expressed in moles per litre.

See these solved cases before continuing.
binder	recorded-measurement
TNF 16C (ssRNA) RNA: GGGAGCUCAGAAUAAACGCUCAACCUGGUGGUCGUGCGGCUGUCGCCUCAAGGUUCGACAUGAGGCCCGGAUCCGGC	6.70
TNF 9C (ssRNA) RNA: GGGAGCUCAGAAUAAACGCUCAAAUGGUGGAGGCCAUCUCAAACCCACGACACUUCGACAUGAGGCCCGGAUCCGGC	6.92

Okay, now this binder:
Task: Any idea what pKd was measured for TNF 19C (ssRNA) RNA: GGGAGCUCAGAAUAAACGCUCAAUGUCGAUCGUGUCAAGGUCCGUCCUACUUCUUCGACAUGAGGCCCGGAUCCGGC ?
Output: 7.08
